- protocol: Acute toxicity
- reported conditions: mouse, in vivo, ip
endpoint name: LD50 at 336 h (mg/kg)

* O=[N+]([O-])c1nccn1COCC=CCO | 830

---

- protocol: Acute toxicity
- reported conditions: mouse, in vivo, ip; ICR mice, intraperitoneal, observation 14 days
endpoint name: LD50 at 336 h (mg/kg)

• O=[N+]([O-])c1nccn1COC(CO)CO = 4300
